# credit: ChEMBL document CHEMBL4616632

# Tested on: Klebsiella pneumoniae
# Test Details: Inhibition of Klebsiella pneumoniae KP1009 CTX-M-15 assessed as minimum concentration of compound required to reduce the MIC of aztreonam to 4 ug/ml
Metric Name: log10 of MEC (log10 of the value in µg/mL)
Scale: decimal log of MEC, MEC in µg/mL.

COc1ccc2c(c1C(=O)O)OB(O)[C@@H]1C[C@H]21
-0.52
CSCC(=O)N[C@H]1Cc2ccc(SCC(N)=O)c(C(=O)O)c2OB1O
-0.22
O=C(O)c1cccc2c1OB(O)[C@@H](Sc1nnc[nH]1)C2
0.70
O=C(O)c1c(OC(F)F)ccc2c1OB(O)[C@@H](Sc1nncs1)C2
1.30
COc1ccc2c(c1C(=O)O)OB(O)[C@@H](CCO)C2
1.30
O=C(O)c1c(OCc2nncs2)ccc2c1OB(O)[C@@H](Sc1nncs1)C2
1.30

Input line: Find the measured log10 of MEC of COc1ccc2c(c1C(=O)O)OB(O)C1CCC21 (configuration not stated) and report it.
Output line: 1.00

Input line: Find the measured log10 of MEC of CSCC(=O)N[C@H]1Cc2ccc(SC3CNC3)c(C(=O)O)c2OB1O and report it.
Output line: -0.22

Input line: Find the measured log10 of MEC of CO[C@H]1Cc2cccc(C(=O)O)c2OB1O and report it.
Output line: 1.00

Input line: Find the measured log10 of MEC of CSCC(=O)N[C@H]1Cc2ccc(OCCO)c(C(=O)O)c2OB1O and report it.
Output line: 0.10

Input line: Find the measured log10 of MEC of O=C(O)c1c(F)ccc2c1OB(O)CC2 and report it.
Output line: -0.22

Input line: Find the measured log10 of MEC of CSCC(=O)N[C@H]1Cc2cccc(C(=O)O)c2OB1O and report it.
Output line: -0.22

Input line: Find the measured log10 of MEC of COc1ccc2c(c1C(=O)O)OB(O)C=C2 and report it.
Output line: 1.00

Input line: Find the measured log10 of MEC of CSCC(=O)N[C@H]1Cc2ccc(Sc3nnc(N)s3)c(C(=O)O)c2OB1O and report it.
Output line: 0.40

Input line: Find the measured log10 of MEC of O=C(O)c1cccc2c1OB(O)[C@H]1C[C@@H]21 and report it.
Output line: 1.00

Input line: Find the measured log10 of MEC of O=C(O)c1nccc2c1OB(O)CC2 and report it.
Output line: 0.40

Input line: Find the measured log10 of MEC of O=C(O)c1c(F)ccc2c1OB(O)[C@@H]1C[C@H]21 [XERUBORBACTAM] and report it.
Output line: -0.52

Input line: Find the measured log10 of MEC of CSCC(=O)N[C@H]1Cc2ccc(SCCO)c(C(=O)O)c2OB1O and report it.
Output line: 0.10

Input line: Find the measured log10 of MEC of CSCC(=O)N[C@H]1Cc2ccc(OCC(=O)O)c(C(=O)O)c2OB1O and report it.
Output line: 0.40

Input line: Find the measured log10 of MEC of O=C(O)c1nccc2c1OB(O)[C@@H]1C[C@H]21 and report it.
Output line: 0.40

Input line: Find the measured log10 of MEC of COc1ccc2c(c1C(=O)O)OB(O)CC21CC1 and report it.
Output line: 0.40

Input line: Find the measured log10 of MEC of Nn1cnnc1S[C@H]1Cc2cccc(C(=O)O)c2OB1O and report it.
Output line: 1.00

Input line: Find the measured log10 of MEC of COc1ccc2c(c1C(=O)O)OB(O)C1(CO)CC21 (configuration not stated) and report it.
Output line: 1.00

Input line: Find the measured log10 of MEC of CSCC(=O)N[C@H]1Cc2ccc(O)c(C(=O)O)c2OB1O and report it.
Output line: 0.10

Input line: Find the measured log10 of MEC of COc1ccc2c(c1C(=O)O)OB(O)CC2 and report it.
Output line: -0.22

Input line: Find the measured log10 of MEC of COc1ccc2c(c1C(=O)O)OB(O)C1C2C1(F)F (configuration not stated) and report it.
Output line: 0.10

Input line: Find the measured log10 of MEC of O=C(O)c1c(F)ccc2c1OB(O)[C@H]1C[C@@H]21 and report it.
Output line: 0.10

Input line: Find the measured log10 of MEC of COc1ccc2c(c1C(=O)O)OB(O)[C@@H](Sc1nncs1)C2 and report it.
Output line: 0.40

---

# Test Details: Inhibition of recombinant Escherichia coli CTX-M-14 using nitrocefin as substrate preincubated for 10 mins followed by substrate addition measured every 10 secs for 10 mins by spectrophotometrically analysis
Metric Name: pKi
Reminder that pKi means the negative base-10 logarithm of the concentration expressed in mol/L.

O=C(O)C[C@@H]1CC[C@H](NC(=O)Cc2cccs2)B(O)O1
7.48
O=C(O)c1c(F)ccc2c1OB(O)[C@@H]1C[C@H]21
9.54

Input line: Find the measured pKi of NC(=O)[C@@H]1CC[C@@H]2CN1C(=O)N2OS(=O)(=O)O and report it.
Output line: 9.39

---

fraction unbound overview
# Test Details: Protein binding in human plasma
# Format: ADME, cell-free
# Run Parameters: read-out: PPB (converted)
# print the numeric value only

O=C(O)c1c(F)ccc2c1OB(O)[C@@H]1C[C@H]21 [XERUBORBACTAM]
0.04

Lab note: next compound to report on.
Input line: Find the measured fraction unbound of COc1ccc2c(c1C(=O)O)OB(O)[C@@H]1C[C@H]21 and report it.
Output line: 0.11

---

# Test Details: Half life in rat at 10 mg/kg, iv administered as infusion for 0.5 hrs by HPLC/MS analysis
# Format: ADME, organism-based
# Run Parameters: in vivo
Metric Name: half-life (h)
# value in h; strip the unit string

Input line: Find the measured half-life of O=C(O)c1c(F)ccc2c1OB(O)[C@@H]1C[C@H]21 [XERUBORBACTAM] and report it.
Output line: 1.25

---

# Test system: Enterobacter cloacae
# Test Details: Inhibition of Enterobacter cloacae ECL1002 AmpC assessed as minimum concentration of compound needed to reduce the MIC of aztreonam to 4 ug/ml
Metric Name: MEC (µg/mL)
# value in µg/mL; strip the unit string

Reference set (3 entries):
COc1ccc2c(c1C(=O)O)OB(O)[C@@H](CCO)C2
10
COc1ccc2c(c1C(=O)O)OB(O)C=C2
10
O=C(O)c1nccc2c1OB(O)CC2
1.25

Input line: Find the measured MEC of CSCC(=O)N[C@H]1Cc2ccc(OCC(=O)O)c(C(=O)O)c2OB1O and report it.
Output line: 5

Input line: Find the measured MEC of O=C(O)c1nccc2c1OB(O)[C@H]1C[C@@H]21 and report it.
Output line: 20

Input line: Find the measured MEC of CSCC(=O)N[C@H]1Cc2cccc(C(=O)O)c2OB1O and report it.
Output line: 0.6

---

# Test system: Klebsiella pneumoniae
# Test Details: Inhibition of Klebsiella pneumoniae KP1160 IMP-26 assessed as minimum concentration of compound needed to reduce the MIC of meropenem to 1 ug/ml
MEC overview
# value in µg/mL; strip the unit string

O=C(O)c1c(OCCF)ccc2c1OB(O)[C@@H](Sc1nncs1)C2
2.5
O=C(O)c1c(F)ccc2c1OB(O)[C@@H](Sc1nncs1)C2
20
O=C(O)c1c(F)ccc2c1OB(O)[C@@H]1C[C@H]21
2.5
COc1ccc2c(c1C(=O)O)OB(O)[C@H]1C[C@@H]21
20

Input line: Find the measured MEC of O=C(O)c1c(OCc2nncs2)ccc2c1OB(O)[C@@H](Sc1nncs1)C2 and report it.
Output line: 2.5

Input line: Find the measured MEC of O=C(O)c1c(OCC2CC2)ccc2c1OB(O)[C@@H](Sc1nncs1)C2 and report it.
Output line: 0.3

Input line: Find the measured MEC of COc1ccc2c(c1C(=O)O)OB(O)C1CC21 (stereo unspecified) and report it.
Output line: 5

---

# Test Details: Inhibition of mammalian elastase (unknown origin) using Suc-AAPA-pNA as substrate preincubated for 10 mins followed by substrate addition measured after 30 mins
# Design: species or system Homo sapiens
Metric Name: pIC50
Reminder that pIC50 means the negative base-10 logarithm of the concentration expressed in mol/L.

Input line: Find the measured pIC50 of O=C(O)c1c(F)ccc2c1OB(O)[C@@H]1C[C@H]21 and report it.
Output line: 4.00

---

# Test Details: Lipophilicity, log D of the compound at pH 7.4
# Type: physicochemical
# Run Parameters: buffer
Metric Name: logD
# print the numeric value only

Input line: Find the measured logD of O=C(O)c1c(F)ccc2c1OB(O)[C@@H]1C[C@H]21 and report it.
Output line: -2.85

---

# Tested on: Klebsiella pneumoniae
# Test Details: Inhibition of Klebsiella pneumoniae KP1054 VIM-1 assessed as minimum concentration of compound required to reduce the MIC of biapenem to 1 ug/ml
Metric Name: MEC (µg/mL)
# value in µg/mL; strip the unit string

Reference set (6 entries):
O=C(O)c1c(F)ccc2c1OB(O)[C@@H](Sc1nncs1)C2
1.25
O=C(O)c1c(OCC2CC2)ccc2c1OB(O)[C@@H](Sc1nncs1)C2
0.16
O=C(O)c1nccc2c1OB(O)[C@H]1C[C@@H]21
20
O=C(O)c1cccc2c1OB(O)[C@@H](Sc1nccs1)C2
2.5
COc1ccc2c(c1C(=O)O)OB(O)[C@@H](CCO)C2
2.5
N#CCOc1ccc2c(c1C(=O)O)OB(O)[C@@H](Sc1nncs1)C2
2.5

Input line: Provide MEC, tested on Klebsiella pneumoniae, for C[C@@H]1Cc2cccc(C(=O)O)c2OB1O .
Output line: 20
